ASSAY_EXPLANATION: Plasma PK of ANEB-001 and THC, 50 and 100 mg oral Compound 1 with THC (Example 2)
Type: in vivo, human
EXPERIMENTAL_SETUP: human, in vivo, 10 mg THC + 100 mg ANEB-001; read-out: THC plasma AUClast, Geometric Mean
PROPERTY_MEASURED: AUC(0-t) (ng·h/mL)
Output spec: scalar in ng·h/mL, unitless text.

The recorded AUC(0-t) for CCCCCc1cc(O)c2c(c1)OC(C)(C)[C@@H]1CCC(C)=C[C@@H]21 [THC, Δ9-tetrahydrocannabinol] is 5.3

###

ASSAY_EXPLANATION: Plasma PK of ANEB-001 and THC, 50 and 100 mg oral Compound 1 with THC (Example 2)
Assay type: in vivo, human
EXPERIMENTAL_SETUP: human, in vivo, 10 mg THC + 100 mg ANEB-001; 0 hrs; read-out: THC Concentration in Plasma, Mean
PROPERTY_MEASURED: concentration at 0 h (ng/mL)
Output spec: scalar in ng/mL, unitless text.

The recorded concentration at 0 h for CCCCCc1cc(O)c2c(c1)OC(C)(C)[C@@H]1CCC(C)=C[C@@H]21 [THC, Δ9-tetrahydrocannabinol] is 0

###

ASSAY_EXPLANATION: Plasma PK of ANEB-001 and THC, 30 mg or 10 mg oral Compound 1 with 21 mg THC (Example 4)
Format: in vivo, human
EXPERIMENTAL_SETUP: human, in vivo, 21 mg THC + 30 mg ANEB-001; 00H00M; read-out: THC in Plasma (concentration), Median
PROPERTY_MEASURED: concentration at 0 h
Units required after the number.

The recorded concentration at 0 h for CCCCCc1cc(O)c2c(c1)OC(C)(C)[C@@H]1CCC(C)=C[C@@H]21 [THC, Δ9-tetrahydrocannabinol] is 0 ng/mL

###

ASSAY_EXPLANATION: Plasma PK of ANEB-001 and THC, 50 and 100 mg oral Compound 1 with THC (Example 2)
Type: in vivo, human
EXPERIMENTAL_SETUP: human, in vivo, 10 mg THC + 50 mg ANEB-001; 2 hrs; read-out: THC Concentration in Plasma, Median
PROPERTY_MEASURED: concentration at 2 h (ng/mL)
Output spec: scalar in ng/mL, unitless text.

The recorded concentration at 2 h for CCCCCc1cc(O)c2c(c1)OC(C)(C)[C@@H]1CCC(C)=C[C@@H]21 [THC, Δ9-tetrahydrocannabinol] is 1.18

###

ASSAY_EXPLANATION: Plasma PK of ANEB-001 and THC, 30 mg or 10 mg oral Compound 1 with 21 mg THC (Example 4)
Type: in vivo, human
EXPERIMENTAL_SETUP: human, in vivo, 21 mg, 21 mg THC + Placebo; read-out: THC plasma AUC5H, Median
PROPERTY_MEASURED: AUC(0-t) (ng·h/mL)
Output spec: scalar in ng·h/mL, unitless text.

The recorded AUC(0-t) for CCCCCc1cc(O)c2c(c1)OC(C)(C)[C@@H]1CCC(C)=C[C@@H]21 [THC, Δ9-tetrahydrocannabinol] is 9.32

###

ASSAY_EXPLANATION: Plasma PK of ANEB-001 and THC, 50 and 100 mg oral Compound 1 with THC (Example 2)
Type: in vivo, human
EXPERIMENTAL_SETUP: human, in vivo, 10 mg THC + Placebo; 0.33 hrs; read-out: THC Concentration in Plasma, Median
Protocol: A phase 2 clinical study was conducted using the design outlined in FIG. 1. Briefly, 60 adult healthy volunteers ages 18-45 (20 per arm) were selected for a randomized, double blind placebo-controlled study. Volunteers were divided into three groups: (1) THC (Δ9-Tetrahydrocannabinol, 10.5 mg)+placebo; (2) THC (10.5 mg)+Compound 1 (50 mg); and (3) THC (10.5 mg)+Compound 1 (100 mg). […] Following the general methods of Example 1, pharmacodynamic properties were measured for Compound 1 (FIGS. 13A-13F).
PROPERTY_MEASURED: concentration at 0.33 h
Units required after the number.

The recorded concentration at 0.33 h for CCCCCc1cc(O)c2c(c1)OC(C)(C)[C@@H]1CCC(C)=C[C@@H]21 [THC, Δ9-tetrahydrocannabinol] is 0.776 ng/mL
